# Test system: U-251
# EXPERIMENT_DESCRIPTION: NCI tumour cell line growth inhibition, 48 h
The source made the active and inactive calls. Cut-off read from the data, not from the text of the source: active = GI50 up to about 1.1 µM and inactive = higher.
OBSERVED_PROPERTY: GI50

| MOLECULE | MEASURED_VALUE |
| --- | --- |
| Oc1c2ccccc2c2c3c(cccc13)N=N2 [SP-600125] | 23.1 µM (inactive) |
| COC(=O)C1CC(C(=O)OC)c2nc3cc(C)ccc3nc21 (configuration not stated) | > 100 µM (inactive) |
| Cc1cc2ccccc2c[n+]1CC(O)C[n+]1cc2ccccc2cc1C | > 100 µM (inactive) |
| Cc1ccc(/C=C(\NC(=O)c2ccccc2)c2nc3ccccc3[nH]2)cc1 | 41.2 µM (inactive) |
| Nn1c(S)nnc1COc1cccc(OCc2nnc(S)n2N)c1 | > 100 µM (inactive) |
| CCc1nc2c(n1CC)C(=O)c1ccccc1C2=O | 44.2 µM (inactive) |
| Cc1c(/N=N/c2ccccc2)c(C)n(C2OC(CO)C(O)C(O)C2O)c(=S)c1C#N (configuration not stated) | 23.2 µM (inactive) |
| ClC(/N=N/c1ccccc1)=N/Nc1ccccc1 | > 100 µM (inactive) |
| COc1ccc2c(c1)OC[C@@H]1c3cc(O)c(OCc4ccccc4)cc3O[C@H]21 | 23.7 µM (inactive) |
| CCCCCCCCCCCCNC(=S)OC | 16 µM (inactive) |
| Cc1cccc(N2C(=O)/C(=C/c3ccc(N(CCC#N)CCC#N)cc3C)N=C2c2cc([N+](=O)[O-])ccc2Cl)c1 | > 100 µM (inactive) |
| CC(=O)OCCn1cnc2nc(Nc3ccccc3)nc(Cl)c21 | 58.3 µM (inactive) |
| COC(=O)/C=C\COCC1C2CCC(=O)C21 (configuration not stated) | > 25 µM (inactive) |
| CC(=O)c1ccc2c(c1)CC1(C2)Cc2cc3c(cc2C1=O)CCC3 (configuration not stated) | 30.3 µM (inactive) |
| O=C(c1nc2ccc([N+](=O)[O-])cc2nc1O)C(O)c1ccc2c(c1)OCO2 (configuration not stated) | > 100 µM (inactive) |
| CN(C)/C=C/c1ccnc2c1C(=O)c1ccccc1C2=O | 15.2 µM (inactive) |
| CC1(C)OC2OC(COC(=O)C(c3ccccc3)c3ccccc3)C3OC(C)(C)OC3C2O1 (configuration not stated) | > 10 µM (inactive) |
| CCOP(=O)(OCC)/C(C#N)=C\c1cccc2ccccc12 | > 67.5 µM (inactive) |
| CCOc1cc(C2SCC(=O)N2c2ccc3c(c2)Oc2c(Cl)c4c(c(Cl)c2=N3)Oc2cc(N3C(=O)CSC3c3ccc(O)c(OCC)c3)ccc2N=4)ccc1O (configuration not stated) | 21 µM (inactive) |
| O=C(NCCCNCCCCNCCCNC(=O)C(F)(F)F)C(F)(F)F | > 100 µM (inactive) |
| Cc1ccc(C)c2c1NC(=O)/C2=N\Nc1ccccc1[N+](=O)[O-] | 85.5 µM (inactive) |
| O=C1CC(=O)NC(NN2C(=O)CSC2c2ccccc2)=N1 (configuration not stated) | > 100 µM (inactive) |

====

# System: SNB-19
# EXPERIMENT_DESCRIPTION: NCI tumour cell line growth inhibition, 48 h
Calls of active or inactive are those of the source. No stated cut-off is given here; in the data, active = GI50 up to about 1.1 µM and inactive = higher.
GI50 values by entry

| COMPOUND | GI50 |
| --- | --- |
| OC(c1ccc2c(c1)OCO2)c1ccc2c(c1)OCO2 | > 100 µM (inactive) |
| CSC1=N/C(=C\c2c[nH]c3ccccc23)C(=O)N1 | > 100 µM (inactive) |
| NC(=O)N/N=C(\CC1OC(=O)c2ccccc21)c1ccco1 (configuration not stated) | > 100 µM (inactive) |
| CC1(C)C(=O)C(C)(C)C12SSC1(S2)C(C)(C)C(=O)C1(C)C | > 100 µM (inactive) |
| Nn1c(S)nnc1COc1cccc(OCc2nnc(S)n2N)c1 | > 100 µM (inactive) |
| CCCCCCCCCCCCNC(=S)OC | 24.7 µM (inactive) |
| C/C(=N/OC(=O)c1cccc2c(=O)c3ccccc3[nH]c12)[C@H]1CC[C@H]2[C@@H]3CCC4=C/C(=N/OC(=O)c5cccc6c(=O)c7ccccc7[nH]c56)CC[C@]4(C)[C@H]3CC[C@]12C | 18.2 µM (inactive) |
| COC(=O)C1=Cc2cc(OC)c(OC)cc2[C@H](c2ccc(OC)c(OC)c2)C1C(=O)OC (some centres not stated) | > 100 µM (inactive) |
| Cc1n2nc(N)sc2n[n+]1Cc1ccccc1 | > 100 µM (inactive) |
| O=c1cc(O)c2ccccc2o1 [4-HYDROXYCOUMARINS] | > 100 µM (inactive) |
| Clc1cc(Cl)cc(C2SCc3nc4ccccc4n32)c1 (configuration not stated) | 20.7 µM (inactive) |
| Cc1ccc(/N=N/c2ccc(N(CCC#N)CCC#N)cc2C)c(Br)c1 | 32.4 µM (inactive) |
